FYI, the data here is from patent US20230348616A1.

# system-tested: T1, HLA-A2/NY-ESO peptide complex presented on cells (human)
# T1 construct: whole, on cells; also called HLA/NY-ESO; T2 cells supplemented with the NY-ESO peptide
# experiment-summary: flow cytometry on peptide-pulsed T2 cells, scFv 100 nM;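 also: scFv binding read as gMFI and normalized to the level of HLA/peptide complex displayed on T2 cells, with homologous 9-mer peptides used to probe specificity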
Examples of binders with documented standardized gMFI follow.

INSERT INTO results (binder, result) VALUES
  ('NYA-2060 (scFv, also called NYA-2060 tag adduct) scFv: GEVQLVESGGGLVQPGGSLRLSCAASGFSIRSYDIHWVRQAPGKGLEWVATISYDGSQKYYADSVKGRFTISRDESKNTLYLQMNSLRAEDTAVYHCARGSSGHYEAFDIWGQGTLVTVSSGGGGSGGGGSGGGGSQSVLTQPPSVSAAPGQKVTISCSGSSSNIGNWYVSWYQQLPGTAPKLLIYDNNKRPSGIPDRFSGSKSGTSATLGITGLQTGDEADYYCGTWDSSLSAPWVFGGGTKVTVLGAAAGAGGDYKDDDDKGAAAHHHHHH', 11.2);

GET /value?item= NYA-2023 (scFv) scFv: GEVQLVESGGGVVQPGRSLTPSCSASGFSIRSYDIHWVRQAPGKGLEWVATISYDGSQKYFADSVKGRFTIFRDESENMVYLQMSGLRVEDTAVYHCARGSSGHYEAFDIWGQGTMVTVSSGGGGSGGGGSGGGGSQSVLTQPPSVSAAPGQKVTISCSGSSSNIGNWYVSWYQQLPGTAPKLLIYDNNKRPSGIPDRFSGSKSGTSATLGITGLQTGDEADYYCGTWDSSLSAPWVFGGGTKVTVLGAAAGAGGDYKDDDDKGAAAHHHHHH &field=standardized gMFI returns 10.1

GET /value?item= NYA-2027 (scFv) scFv: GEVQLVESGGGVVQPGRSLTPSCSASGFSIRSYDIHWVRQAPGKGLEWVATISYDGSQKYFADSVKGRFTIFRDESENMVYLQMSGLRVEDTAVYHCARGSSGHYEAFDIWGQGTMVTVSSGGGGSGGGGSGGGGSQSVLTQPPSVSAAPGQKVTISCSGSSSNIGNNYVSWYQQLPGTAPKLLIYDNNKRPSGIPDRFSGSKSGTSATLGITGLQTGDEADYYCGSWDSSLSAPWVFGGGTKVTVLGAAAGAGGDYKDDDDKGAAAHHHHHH &field=standardized gMFI returns 7.25

GET /value?item= NYA-2048 (scFv, also called NYA-2048 tag adduct) scFv: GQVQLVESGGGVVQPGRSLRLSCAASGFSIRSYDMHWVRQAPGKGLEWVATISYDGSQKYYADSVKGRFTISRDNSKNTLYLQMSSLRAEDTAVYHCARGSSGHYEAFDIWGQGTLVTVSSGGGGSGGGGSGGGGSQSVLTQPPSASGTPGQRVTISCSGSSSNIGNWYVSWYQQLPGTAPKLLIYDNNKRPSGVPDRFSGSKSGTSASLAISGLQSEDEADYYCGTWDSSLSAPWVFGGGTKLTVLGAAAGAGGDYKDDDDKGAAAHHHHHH &field=standardized gMFI returns 8.82

GET /value?item= NYC-0003 (scFv, not shown: small tags and cut ends, also called 3M4E5 scFv; NYC-0003 tag adduct) scFv: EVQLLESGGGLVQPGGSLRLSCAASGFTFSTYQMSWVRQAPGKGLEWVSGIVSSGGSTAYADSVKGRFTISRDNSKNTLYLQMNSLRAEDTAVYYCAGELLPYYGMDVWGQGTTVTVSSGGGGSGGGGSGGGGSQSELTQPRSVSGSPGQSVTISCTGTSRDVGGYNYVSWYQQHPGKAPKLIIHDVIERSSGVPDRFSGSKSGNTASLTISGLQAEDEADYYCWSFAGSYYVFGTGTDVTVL &field=standardized gMFI returns 5.22
